All values here come from paper PMC10809383.

Test system: human melanoma cells (BLM)
Assay: WST-1 viability assay, BLM cells
Type: cell-based
Settings: MRC-5 versus BLM, 72 h, WST-1
Description: In addition, the cytotoxic activity of compounds 17, 20, and 22–30 was assessed by the WST-1 viability assay using BLM (human melanoma) and MRC-5 (noncancerous human fibroblasts) cells growing in a monolayer (2D cultures, Table 2) after 72 h of treatment. […] The compound cytotoxicity was determined by a WST-1 viability assay (Merck, USA). […] The data were plotted as dose–response curves from which the half-maximal inhibitory concentrations (IC50) were calculated using AAT Bioquest.

{"MOLECULE": "C=C1[C@@H](C)[C@H]2[C@H](Cc3ccccc3)NC(=O)[C@]23OC(=O)/C=C/[C@H](O)CCC[C@@H](C)C/C=C/[C@H]3[C@@H]1O [CytB (1), cytochalasin B, reference compound]", "OPERATOR": "=", "selectivity index (SI)": 0.01}
{"MOLECULE": "COC(=O)[C@@]12C(=O)N[C@@H](Cc3ccccc3)[C@@H]1[C@H](C)[C@@](C)(O)[C@@H](O)[C@@H]2CCOCCc1ccc(Br)cc1 [Compound 23h]", "OPERATOR": ">", "selectivity index (SI)": 2.2}
{"MOLECULE": "COC(=O)[C@@]12C(=O)N[C@@H](Cc3ccccc3)[C@@H]1[C@H](C)C(C)=C[C@@H]2CCOCCc1ccccc1 [Compound 17a]", "OPERATOR": "=", "selectivity index (SI)": 1.1}
{"MOLECULE": "COC(=O)[C@@]12C(=O)N[C@@H](Cc3ccccc3)[C@@H]1[C@H](C)C(C)=C[C@@H]2CCOCCc1ccc(Cl)cc1 [Compound 17g]", "OPERATOR": "=", "selectivity index (SI)": 1.1}
{"MOLECULE": "COC(=O)[C@@]12C(=O)N[C@@H](Cc3ccccc3)[C@@H]1[C@H](C)C(C)=C[C@@H]2CCOCCc1ccc(C)cc1 [Compound 17c]", "OPERATOR": "=", "selectivity index (SI)": 0.71}
{"MOLECULE": "COC(=O)[C@@]12C(=O)N[C@@H](Cc3ccccc3)[C@@H]1[C@H](C)C(C)=C[C@@H]2CCOCCc1ccc([N+](=O)[O-])cc1 [Compound 17j]", "OPERATOR": "=", "selectivity index (SI)": 1.0}
{"MOLECULE": "COC(=O)[C@@]12C(=O)N[C@@H](Cc3ccccc3)[C@@H]1[C@H](C)C(C)=C[C@@H]2CCCOCc1ccccc1 [Compound 20]", "OPERATOR": "=", "selectivity index (SI)": 1.0}
{"MOLECULE": "COC(=O)[C@@]12C(=O)N[C@@H](Cc3ccccc3)[C@@H]1[C@H](C)[C@@](C)(O)[C@@H](O)[C@@H]2CCOCCc1ccccc1 [Compound 23a]", "OPERATOR": "=", "selectivity index (SI)": 2.2}
{"MOLECULE": "COC(=O)[C@@]12C(=O)N[C@@H](Cc3ccccc3)[C@@H]1[C@H](C)C(C)=C[C@@H]2CCOCCc1cccc(F)c1 [Compound 17e]", "OPERATOR": "=", "selectivity index (SI)": 1.2}
